The next entries give measured IC50 for Cytochrome P450 2C9 (Homo sapiens, UniProt P11712).

{"compound": "Cc1ccc(-c2ccc3c(c2)C[C@@H](NS(=O)(=O)C(C)C)C3)cn1", "assay-result": "> 10 µM"}

Problem: Which IC50 value belongs to CC(C)S(=O)(=O)NC1Cc2ccc(-c3ccc(F)cn3)cc2C1 (configuration not stated) ?
Solution: > 10 µM

Problem: Which IC50 value belongs to CC(C)S(=O)(=O)NC1Cc2ccc(-c3ccc(Cl)cn3)cc2C1 (configuration not stated) ?
Solution: > 10 µM

Problem: Which IC50 value belongs to Cc1cccnc1-c1ccc2c(c1)CC(NS(=O)(=O)C(C)C)C2 (configuration not stated) ?
Solution: > 10 µM

Problem: Which IC50 value belongs to Cc1ccncc1-c1ccc2c(c1)CC(NS(=O)(=O)C(C)C)C2 (configuration not stated) ?
Solution: > 10 µM

Problem: Which IC50 value belongs to "CC(C)S(=O)(=O)N[C@H]1Cc2ccc(-c3ccc(F)nc3)cc2C1" ?
Solution: > 10 µM

Problem: Which IC50 value belongs to CC(C)S(=O)(=O)NC1Cc2ccc(-c3cccnc3F)cc2C1 (configuration not stated) ?
Solution: > 10 µM
